Molecular target: 5-HT1A receptor (Homo sapiens)
Sequence (P08908 1-422): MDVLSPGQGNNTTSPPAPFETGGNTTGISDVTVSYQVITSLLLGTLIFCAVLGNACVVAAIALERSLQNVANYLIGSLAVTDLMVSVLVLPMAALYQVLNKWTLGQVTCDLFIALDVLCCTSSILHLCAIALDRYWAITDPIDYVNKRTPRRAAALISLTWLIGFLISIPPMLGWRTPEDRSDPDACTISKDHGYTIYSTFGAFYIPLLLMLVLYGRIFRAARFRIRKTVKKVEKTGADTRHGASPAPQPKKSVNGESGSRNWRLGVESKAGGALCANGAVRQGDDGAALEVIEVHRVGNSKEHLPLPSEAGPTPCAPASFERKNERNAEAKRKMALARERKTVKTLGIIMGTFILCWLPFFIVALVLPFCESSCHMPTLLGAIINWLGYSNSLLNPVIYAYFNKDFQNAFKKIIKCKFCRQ
Assay: 5-HT1A receptor affinity: displacement of [3H] 8-OH-DPAT
Format: binding
Set-up: expressed in transfected cells
Settings: displacement of [3H] 8-OH-DPAT; CHO cells stably transfected with human 5-HT1A receptors; read-out: 5-HT1A Receptor Affinity Ki
Reported values of pKi for individual entries
Schema: pKi number; meaning minus log10 of the concentration expressed in molar units.

Below are worked cases with known answers.
>>> df
                                   compound  experimental_endpoint  measurement
0  CCNC(=O)c1ccc(F)c2c1CC(N(CCCc1c[nH]c3ccc(F)cc13)C1CCC1)CO2 (centres unmarked) [Compound 60]                    pKi         7.75
1  NC(=O)c1ccc(F)c2c1CC(N(CCCCn1ccc3ccc(F)cc31)C1CCC1)CO2 (centres unmarked) [Compound 196]                    pKi         7.89
2  NC(=O)c1ccc(F)c2c1CC(N(CCCCn1ccc3cc(F)ccc31)CC1CC1)CO2 (centres unmarked) [Compound 199]                    pKi         8.26
3  CNC(=O)c1cccc2c1CC(N(CCCc1c[nH]c3c(F)cc(F)cc13)C1CCC1)CO2 (centres unmarked) [Compound 138]                    pKi         8.90

Qu. Please give the documented pKi of COc1cccc2c1CC(N(CCCc1c[nH]c3ccc(F)cc13)C1CCCC1)CO2 (centres unmarked) [Compound 39]
Ans. 7.44
